tested on: MDA-MB-231 breast; experiment: NCI tumour cell line growth inhibition, 48 h
Readout: GI50

# annotated cases, reported GI50 shown
1) COc1cc2c3c(n(CCCN4CCSCC4)c(=O)c2cc1OC)-c1cc2c(cc1C3=O)OCO2
25.2 µM
2) CCN(CCNc1ccc(C)c2sc3cc(Cl)ccc3c(=O)c12)CC(C)(C)O
2.31 µM
3) CCOc1cc(/C=C/C(=O)CC(=O)/C=C/c2ccc(OC(=O)CNCCN(CC)CC)c(OCC)c2)ccc1OC(=O)CNCCN(CC)CC
2.08 µM

Switching to the query record.
Prompt line: What reported GI50 corresponds to CC1(C)N=C(N)N=C(N)N1c1ccc(OCCCCNC(=O)Nc2cccc(S(=O)(=O)F)c2)c(Cl)c1 on MDA-MB-231 breast?
Response line: 6.57 µM

Data origin: PubChem BioAssay (NCI)
